Value source: ChEMBL document CHEMBL1156964

- Protocol summary: Neuroprotective effect against rat N27 cells assessed as reduction of BSO-induced increase in reactive oxygen species level at 0.5 uM after 24 hrs by DCFDA fluorescence assay relative to control
- Format: functional
- Design: scale not given: the % may be the effect or the level left
# reported Activity; entries follow
A bare number is not enough; add the unit after it.

input: I am curious: what Activity value has been reported for COc1cc(/C=C/C(=O)CC(=O)/C=C/c2ccc(OC(=O)/C=C/C=C/c3ccc(O)c(O)c3)c(OC)c2)ccc1OC(=O)/C=C/C=C/c1ccc(O)c(O)c1 ?
output: 65%

input: Subsequent entry: COc1cc(/C=C/C(=O)CC(=O)/C=C/c2ccc(OC(=O)[C@@H](N)CCC(=O)O)c(OC)c2)ccc1OC(=O)[C@@H](N)CCC(=O)O
output: 90%

input: Subsequent entry: COc1cc(/C=C/C(=O)CC(=O)/C=C/c2ccc(O)c(OC)c2)ccc1O
output: 45%

input: Subsequent entry: COc1cc(/C=C/C(=O)CC(=O)/C=C/c2ccc(OC(=O)[C@@H](N)C(C)C)c(OC)c2)ccc1OC(=O)[C@@H](N)C(C)C
output: 60%
